# targetOfAssay: T1, recombinant human DLL4, C-terminally His-tagged extracellular domain (R&D Systems) (human, UniProt Q9NR61 25-522, biotinylated where used in competition ELISA, AlphaScreen and on SA chips)
# T1 construct: also called rhDLL4; hDLL4; not shown: C-terminal His tag
# T1 sequence (Q9NR61 25-522): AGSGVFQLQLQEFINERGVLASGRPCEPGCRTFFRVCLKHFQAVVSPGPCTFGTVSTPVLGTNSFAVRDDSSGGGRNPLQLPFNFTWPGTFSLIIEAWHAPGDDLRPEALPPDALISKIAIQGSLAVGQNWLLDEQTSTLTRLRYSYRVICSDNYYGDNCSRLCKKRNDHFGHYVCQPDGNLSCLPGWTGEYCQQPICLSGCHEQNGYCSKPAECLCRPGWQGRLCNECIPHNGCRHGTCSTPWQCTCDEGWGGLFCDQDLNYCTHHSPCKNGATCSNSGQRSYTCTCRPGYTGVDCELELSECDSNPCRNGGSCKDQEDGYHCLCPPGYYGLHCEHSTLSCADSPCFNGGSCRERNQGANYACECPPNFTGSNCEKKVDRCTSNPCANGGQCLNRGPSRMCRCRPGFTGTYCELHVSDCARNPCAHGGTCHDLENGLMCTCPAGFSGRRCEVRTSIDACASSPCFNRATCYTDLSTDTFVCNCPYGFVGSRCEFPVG
# measurementProtocol: competition ELISA, periplasmic extract
Reported ELISA hDLL4 % inhibition values are given for each entry in this list.
Output spec: scalar in %, unitless text.

Would you please look over these solved cases?
binder="DLLBII28B06 (VHH, tested as periplasmic extract; also called DLLBII28B6; not shown: C-terminal c-myc tag and His6 tag) VHH: EVQLVESGGGLVQAGGSLRLSCAASGSTFSTYAMGWYRQDPGNQRELVAAISSDGSTHYADSVKGRFTISRDNAKNTVYLQMNSLKPEDTAVYYCYAPVKVAGLEYDYWGQGTQVTVSS" valuetype="ELISA hDLL4 % inhibition" unitspec=% measurement=23
binder="DLLBII8A09 (VHH, also called DLLBII08A09; not shown: C-terminal c-myc tag and His6 tag) VHH: EVQLVESGGGLVQPGGSLRLSCAASGFTLDYYNIGWFRQAPGKEREWVSCINSSDGSTYYADSVKGRFTISRDNAKNTVYLQMNSLKPEDTAVYYCAAPFAYYSNLCGVNGYDYWGQGTQVTVSS" valuetype="ELISA hDLL4 % inhibition" unitspec=% measurement=96
binder="DLLBII19F12 (VHH, tested as periplasmic extract; not shown: C-terminal c-myc tag and His6 tag) VHH: EVQLVESGGGLVQAGGSLRLSCTASGSTFTSYAMGWYRQAPGKQRELVAAISSDDSTYYADCVKGRFTISRDNAKNTVYLQMNSLKPEDTAVYYCNAPHSDYDEEAPSDFGSWGQGTQVTVSS" valuetype="ELISA hDLL4 % inhibition" unitspec=% measurement=98

Item: DLLBII17F10 (VHH, not shown: C-terminal c-myc tag and His6 tag) VHH: EVQLVESGGGLVQAGGSLRLSCASSGRTLLNYAMGWFRQAPGKEREFVSGINWSGGSTYYADSVKGRFTISRDNAENTVYLHMNSLKPEDTAVYYCAAAHDNYWFTDDSLGRGLKYWGQGTQVTVSS | ELISA hDLL4 % inhibition: 98

The recorded ELISA hDLL4 % inhibition for DLLBII17B03 (VHH, tested as periplasmic extract; also called DLLBII17B3; not shown: C-terminal c-myc tag and His6 tag) VHH: EVQLVESGGGLVQPGGSLRLSCAASGFTFENYALGWFRQAPGKEREWVSCISSSDGTTYYADSVKGRFTISRDNVKNTVYLQMNRLKPEDTAIYYCALSLGSSWCAYDYWGQGTQVTVSS is 76

Noted for DLLBII19D10 (VHH, tested as periplasmic extract; not shown: C-terminal c-myc tag and His6 tag) VHH: EVQLVESGGGLVQAGDSLRLSCAASGRTVGSYDMSWVRQGPGKEREWVSSINSGVGKTYYADSVKGRFTIFRDNAKNMVYLQMNNLKPEDTAVYYCATEMDGSRYVEGQGTQVTVSS : its ELISA hDLL4 % inhibition reads 98
